// reported fold improvement in potency/affinity compared to compound 2 for each item listed
test-target: pa-HemO (Pseudomonas aeruginosa, UniProt O69002)
assay: fluorescence quenching assay
Assay type: binding
test-conditions: ratio of KD values relative to inhibitor 2

Solved cases below.
* COc1ccc(/C=C2\SC(=S)N(CCC(=O)O)C2=O)cc1 | ~ 2 fold
* O=C1/C(=C/c2ccccn2)SC(=S)N1CCc1nnn[nH]1 | ~2 fold
* O=C(O)CCN1C(=O)/C(=C/c2ccc(Cl)cc2)SC1=S | > 3 fold
* COc1cccc(/C=C2\SC(=S)N(CCC(=O)O)C2=O)c1 | ~ 2 fold

Could you now consider this next compound?
Data request, read-out fold improvement in potency/affinity compared to compound 2, for CC(C)c1ccc(/C=C2\SC(=S)N(CCC(=O)O)C2=O)cc1
5 fold
